System: Enterovirus
EXPERIMENT: Inhibitory concentration to prevent formation of Enterovirus (EV 71) plaques
Format: functional, organism-based
QUANTITY_KIND: pIC50
Give bare numbers, as −log10 of the molar value.

Sample records with pIC50:
{"COMPOUND": "Cc1ccsc1C(c1ccccn1)N1CCN(c2ncnc3c2cnn3-c2ccccc2)CC1 (centres undefined)", "QUANTITY_KIND": "pIC50", "OBSERVED_RESULT": 6.44}
{"COMPOUND": "c1ccc(C(c2ccco2)N2CCN(c3ncnc4c3cnn4-c3ccccc3)CC2)cc1 (centres undefined)", "QUANTITY_KIND": "pIC50", "OBSERVED_RESULT": 5.90}
{"COMPOUND": "N#Cc1ccc(C(c2ccccc2)N2CCN(c3ncnc4c3cnn4-c3ccccc3)CC2)cc1 (centres undefined)", "QUANTITY_KIND": "pIC50", "OBSERVED_RESULT": 6.03}
{"COMPOUND": "c1ccc(C(c2ccccc2)N2CCN(c3ncnc4c3cnn4-c3ccccc3)CC2)cc1", "QUANTITY_KIND": "pIC50", "OBSERVED_RESULT": 6.39}
{"COMPOUND": "c1ccc(C(c2cccnc2)N2CCN(c3ncnc4c3cnn4-c3ccccc3)CC2)cc1 (centres undefined)", "QUANTITY_KIND": "pIC50", "OBSERVED_RESULT": 5.34}
{"COMPOUND": "c1ccc(C(c2ccncc2)N2CCN(c3ncnc4c3cnn4-c3ccccc3)CC2)cc1 (centres undefined)", "QUANTITY_KIND": "pIC50", "OBSERVED_RESULT": 6.11}

Required: pIC50, one value per compound below.
1. FC(F)(F)c1ccc(C(c2ccccc2)N2CCN(c3ncnc4c3cnn4-c3ccccc3)CC2)cc1 (centres undefined)
2. c1ccc(-c2ccc(C(c3ccccc3)N3CCN(c4ncnc5c4cnn5-c4ccccc4)CC3)cc2)cc1 (centres undefined)

1: 5.78; 2: 5.72
